- run_description: Fraction unbound in rat serum
- Assay type: ADME, cell-free
result_type: fraction unbound
Numbers only.

**Q:** Recorded fraction unbound of "C[C@@]1(c2cc(NC(=O)c3ccc(C#N)cn3)ccc2F)Cc2c(ccnc2F)C(N)=N1" , please.
**A:** 0.15

----------
- run_description: Dissociation constant, pKa of compound by capillary electrophoresis
- Assay type: physicochemical
If the reported pKa equals or exceeds 9, assign Satisfied. If not, assign Not satisfied.

>  <compound>
CC1(c2cc(NC(=O)c3ccc(C#N)cn3)ccc2F)Cc2cncc(F)c2C(N)=N1 (configuration not stated)

>  <discrete_label>
Not satisfied

$$$$

**Q:** Answer whether pKa of CC1(c2cc(NC(=O)c3ccc(C#N)cn3)ccc2F)Cc2c(F)cncc2C(N)=N1 (configuration not stated) is greater than or equal to 9.
**A:** Not satisfied

**Q:** Is reported pKa greater than or equal to 9 here: CC1(c2cc(NC(=O)c3ccc(C#N)cn3)ccc2F)Cc2ncccc2C(N)=N1 (configuration not stated)
**A:** Satisfied

**Q:** Hi team, for CC1(c2cc(NC(=O)c3ccc(C#N)cn3)ccc2F)Cc2cccnc2C(N)=N1 (configuration not stated) , is the recorded pKa at or above 9?
**A:** Satisfied

**Q:** Textbook exercise: given the entry "C[C@@]1(c2cc(NC(=O)c3ccc(C#N)cn3)ccc2F)Cc2c(ccnc2F)C(N)=N1" , state whether its pKa is greater than or equal to 9.
**A:** Not satisfied

**Q:** Does CC1(c2cc(NC(=O)c3ccc(C#N)cn3)ccc2F)Cc2ccncc2C(N)=N1 (configuration not stated) have a reported pKa of at least 9?
**A:** Satisfied

----------
- run_description: Ratio of drug level in Cerebrospinal fluid to plasma in Beagle dog at 1 mg/kg, po measured after 10 hrs
- Assay type: ADME, organism-based, Canis lupus familiaris, CSF/Plasma
result_type: Kp at 10 h
Give bare numbers.

**Q:** Data request, read-out Kp at 10 h, for "C[C@@]1(c2cc(NC(=O)c3ccc(C#N)cn3)ccc2F)Cc2c(ccnc2F)C(N)=N1"
**A:** 0.07

----------
- run_description: AUC in rat at 1 mg/kg, po
- Format: ADME, organism-based
- Parameters: dose 1 mg/kg
- assay_conditions: in vivo
result_type: AUC
Could you kindly put the unit after your number?

**Q:** For "C[C@@]1(c2cc(NC(=O)c3ccc(C#N)cn3)ccc2F)Cc2c(ccnc2F)C(N)=N1" , what is its reported AUC?
**A:** 122 ng·h/mL

----------
- target_system: Beta-secretase 1 (Homo sapiens)
- Sequence (P56817 whole entry): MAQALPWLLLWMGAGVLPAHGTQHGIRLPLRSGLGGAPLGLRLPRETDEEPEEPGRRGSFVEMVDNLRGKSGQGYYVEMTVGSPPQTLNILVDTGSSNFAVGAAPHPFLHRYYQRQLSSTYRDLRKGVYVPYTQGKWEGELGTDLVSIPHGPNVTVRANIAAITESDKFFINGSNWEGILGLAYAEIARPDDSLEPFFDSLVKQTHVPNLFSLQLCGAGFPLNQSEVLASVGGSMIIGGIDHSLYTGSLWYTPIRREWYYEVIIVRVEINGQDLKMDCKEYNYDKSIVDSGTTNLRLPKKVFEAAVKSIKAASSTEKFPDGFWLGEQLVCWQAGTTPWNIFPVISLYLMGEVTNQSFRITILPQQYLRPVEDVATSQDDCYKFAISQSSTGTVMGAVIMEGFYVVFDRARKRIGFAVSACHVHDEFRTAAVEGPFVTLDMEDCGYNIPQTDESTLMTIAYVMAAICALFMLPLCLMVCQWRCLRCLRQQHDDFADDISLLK
- run_description: Inhibition of BACE1 (unknown origin) by HTRF assay
result_type: pIC50
Give bare numbers, as −log10 of the molar value.

Solved entries (count: 5):
>  <compound>
CC1(c2cc(NC(=O)c3ccc(C#N)cn3)ccc2F)Cc2ccncc2C(N)=N1 (configuration not stated)

>  <data_value>
8.09

$$$$
>  <compound>
C[C@@]1(c2cc(NC(=O)c3ccc(C#N)cn3)ccc2F)Cc2c(ccnc2F)C(N)=N1

>  <data_value>
8.04

$$$$
>  <compound>
CC1(c2cc(NC(=O)c3ccc(C#N)cn3)ccc2F)Cc2cncc(F)c2C(N)=N1 (configuration not stated)

>  <data_value>
6.93

$$$$
>  <compound>
CC1(c2cc(NC(=O)c3ccc(C#N)cn3)ccc2F)Cc2c(ccnc2F)C(N)=N1 (configuration not stated)

>  <data_value>
7.85

$$$$
>  <compound>
CC1(c2cc(NC(=O)c3ccc(C#N)cn3)ccc2F)Cc2cnccc2C(N)=N1 (configuration not stated)

>  <data_value>
7.68

$$$$

Please state, for each entry, its recorded pIC50.
1. CC1(c2cc(NC(=O)c3ccc(C#N)cn3)ccc2F)Cc2c(F)cncc2C(N)=N1 (configuration not stated)
2. CC1(c2cc(NC(=O)c3ccc(C#N)cn3)ccc2F)Cc2cccnc2C(N)=N1 (configuration not stated)

**A:**
[7.92, 6.40]
